assay: NCI Yeast Anticancer Drug Screen. Data for the mgt1 strain (AID 153); conditions: S. cerevisiae mgt1 mutant growth inhibition; at 100.0 µM
Compounds without any hit were thinned out: in the full panel of roughly 79,000, 15% have a hit. Active and inactive are the calls of the source. No stated cut-off is given here; in the data, active means growth inhibition above about 70%; inactive means the rest.
Valid outcomes are listed here; reply with one: Y = active, N = inactive

*Q* What is the recorded call for this compound in the test? BrC1C2CCC3OC3C12 (centres undefined)
*A* Y

*Q* What is the recorded call for this compound in the test? `c1ccc2nc3c(nc2c1)sc1ccccc13`
*A* N

*Q* What is the recorded call for this compound in the test? `CC(C)OP(=O)(OC(C)C)/C(Cl)=N/Nc1ccc([N+](=O)[O-])cc1`
*A* Y

*Q* What is the recorded call for this compound in the test? `CCCCS(=O)(=O)Nc1ccc(Nc2c3ccccc3nc3ccccc23)c(OC)c1`
*A* Y

*Q* What is the recorded call for this compound in the test? Cc1cccc2c1C1c3c(C)cccc3C(CC(=O)O)CC1CC2 (centres undefined)
*A* Y

*Q* What is the recorded call for this compound in the test? `CC(C)(CN1CCCCC1)C(=O)/C=C/c1c(Cl)cccc1Cl`
*A* Y

*Q* What is the recorded call for this compound in the test? CC1C(c2ccccc2)SC(=N)N1C (centres undefined)
*A* N

*Q* What is the recorded call for this compound in the test? `O=C(C#Cc1ccccc1)/C=C/c1ccccc1`
*A* Y

*Q* What is the recorded call for this compound in the test? `NC(=S)N1N=C2c3ccccc3CC[C@H]2[C@@H]1c1ccc(Cl)cc1`
*A* Y

*Q* What is the recorded call for this compound in the test? `CCN(CC)C(=S)N/N=C(\C)c1ccccc1O`
*A* Y

*Q* What is the recorded call for this compound in the test? N#CCC(=O)N/N=C(\c1ccccc1)C(c1ccccc1)C1(O)C(=O)Nc2c(Cl)ccc(Cl)c21 (centres undefined)
*A* N

*Q* What is the recorded call for this compound in the test? `CCCNC(=O)OCc1c(COC(=O)NCCC)c(-c2ccc(Cl)c(Cl)c2)n2c1CCC2`
*A* N

*Q* What is the recorded call for this compound in the test? `O=C1c2ccccc2-c2ccc(N=Cc3ccccc3)cc21`
*A* N

*Q* What is the recorded call for this compound in the test? `Cc1cc(C)c2[s+]snc2c1`
*A* N

*Q* What is the recorded call for this compound in the test? `CC(C)(N=Nc1ccc(Cl)cc1)[N+](=O)[O-]`
*A* Y

*Q* What is the recorded call for this compound in the test? `CCCCCCNCCCNc1c2cc(OC)ccc2nc2cccc([N+](=O)[O-])c12`
*A* Y

*Q* What is the recorded call for this compound in the test? `CCCCCCC=C(C(=O)OCC)C(=O)OCC`
*A* N

*Q* What is the recorded call for this compound in the test? `O=[N+]([O-])c1ccc(C(c2c[nH]c3ccccc23)c2c[nH]c3ccccc23)cc1`
*A* Y

*Q* What is the recorded call for this compound in the test? `CCCCCCCN1C(=O)c2ccccc2C1=O`
*A* N

*Q* What is the recorded call for this compound in the test? `COC(=O)C1=C(C(=O)OC)CC(n2nnc(C(=O)OC)c2C(=O)OC)=CC1`
*A* N

*Q* What is the recorded call for this compound in the test? `CCC[CH2][Sn]([CH2]CCC)([CH2]CCC)/[C](=C/[Si](C)(C)c1ccccc1)c1ccc2c(c1)OCO2`
*A* Y

*Q* What is the recorded call for this compound in the test? COc1ccc(C(C)c2cc3c(cc2OCC(C)=O)OCO3)cc1 (centres undefined)
*A* N

*Q* What is the recorded call for this compound in the test? COc1cccc(C(NC2=NCCC=N2)c2cc3c(cc2O)OCO3)c1O (centres undefined)
*A* N

*Q* What is the recorded call for this compound in the test? c1ccc2c(c1)N=C1CCCC3CCCC123 (centres undefined)
*A* Y
